The measurements presented in this section are drawn from PubChem BioAssay (NCI).

- Tested on: SK-MEL-2 melanoma
- Assay Explanation: NCI-60 one-dose screen, 48 h (100 = growth as untreated, 0 = no growth, -100 = all killed)
- Setup Conditions: 10 µM
This is part of a sample that, as a whole, favours compounds with a hit. Of some 83,000 tested, about 20% had one in any assay.
Measured Attribute: growth (%)
One number for each entry, in %.

Below: 3 compounds and their reported growth.
Compound	Target Entity	growth, %
O=C(O)C(SC(C(=O)O)c1ccccc1)c1ccccc1 (stereo not given)	SK-MEL-2 melanoma	103
CCOCCOCCOCCOCCOCCOCCOCCOCCOCCO (tested in a mixture with another compound)	SK-MEL-2 melanoma	-61.7
N=C(N)c1ccc(-c2ccc(-c3ccccc3)o2)nc1	SK-MEL-2 melanoma	109

For every item below, please supply its growth.
1. COc1cc(CNCCCCCCN2C(=O)c3cccc4cccc(c34)C2=O)ccc1O
2. CCOC(=O)c1ccc(NC(=O)Nc2ncc(Cl)cc2Cl)cc1
3. CN(C)CCOc1nc2ccccc2c2c1-c1ccc(Cl)cc1C2=O
4. O=C1/C(=C\c2ccccc2)CN(C(=O)c2ccccc2)C/C1=C\c1ccccc1
5. CC(C)(C)c1ccc(N2CSC(=S)N(c3ccc(C(C)(C)C)cc3)C2)cc1
6. CCN(CC)CCOc1nc2ccc(OC)cc2c2c1-c1ccc(OC)cc1C2=O

Solution:
[120, 102, -9.67, 58.6, 101, 20.8]

Problem: Determine from records and report growth for CSCCCNC(=O)c1ccc2c(c1)/C(=C/c1[nH]c(C)cc1C)C(=O)N2
Solution: -27.6

----------
- Tested on: SF-539 CNS
- Assay Explanation: NCI-60 one-dose screen, 48 h
- Setup Conditions: 10 µM
The panel holds about 83,000 compounds, 20% with a hit somewhere; the sample as a whole holds those more often. The source made the active and inactive calls. Rule for the calls: active = growth percent below 10; inactive = the rest.
Allowed answers: y = active, n = inactive

Compound	Label Class
O=c1[nH]c2ccc(Cl)cc2c2ccccc12	n

Problem: Returns: the outcome recorded for O=C(Nc1nc2ccccc2s1)Nc1ccc([N+](=O)[O-])cc1Cl in this assay.
Solution: y

Problem: Returns: the outcome recorded for O=C(CC(NC(=O)OCc1ccccc1)C(=O)OCc1ccccc1)OCc1ccccc1 (stereo unspecified) in this assay.
Solution: n

Problem: Returns: the outcome recorded for O=C(c1cccs1)c1ccccc1Cc1ccccc1 in this assay.
Solution: n

Problem: Returns: the outcome recorded for N#Cc1ncc(-c2ccc(C(F)(F)F)cc2)c(NCc2cc(C(F)(F)F)cc(C(F)(F)F)c2)n1 in this assay.
Solution: n

Problem: Returns: the outcome recorded for COc1ccc(OC)c2c1C(=O)CC2C (stereo unspecified) in this assay.
Solution: n

----------
- Test system: OVCAR-8 ovarian
- Assay Explanation: NCI-60 one-dose screen, 48 h
- Setup Conditions: 10 µM
The panel holds about 83,000 compounds, 20% with a hit somewhere; the sample as a whole holds those more often. Activity calls are given as the source filed them. Rule for the calls: active = growth percent below 10; inactive = the rest.
Allowed answers: active, inactive

Compound	Label Class
S=c1[nH]ccn1-c1c(Cl)cccc1Cl	inactive

Problem: Returns: the outcome recorded for CN(C)CCOc1nc2ccccc2c2c1-c1ccc(Cl)cc1C2=O in this assay.
Solution: active

Problem: Returns: the outcome recorded for CCN(CC)CCC(CNc1c(C)cnc2cc(Cl)ccc12)c1ccc(Cl)c(Cl)c1 (stereo unspecified) in this assay.
Solution: inactive

Problem: Returns: the outcome recorded for O=C(Nc1nc2ccccc2s1)Nc1ccc([N+](=O)[O-])cc1Cl in this assay.
Solution: active

Problem: Returns: the outcome recorded for COc1ccc(Cn2c(C(N)=O)cc3c2-c2nc(N)ncc2CCC3)cc1 in this assay.
Solution: inactive

Problem: Returns: the outcome recorded for O=[N+]([O-])c1ccc(N/N=C/c2cccc3ccccc23)nc1 in this assay.
Solution: inactive

----------
- System: A549/ATCC NSCLC
- Assay Explanation: NCI-60 one-dose screen, 48 h
- Setup Conditions: 10 µM
About 83,000 compounds went through this panel and 20% of them were active in at least one assay; those are over-represented in the sample as a whole. Activity calls are given as the source filed them. Rule for the calls: active = growth percent below 10; inactive = the rest.
Allowed answers: active, inactive

Examples from the recorded data:
Molecule	Label Class
CC(=O)O[C@]1(C)CC[C@H]2[C@H](CNCCc3ccc(Cl)cc3)C(=O)O[C@@H]2C2=C(C)C(=O)C[C@H]21	inactive
CCN1Cc2c(/C=C/c3ccccc3)nc3ccc(OC)cc3c2N(c2cccc(Cl)c2)C1	inactive
Oc1[nH]c2ccc(Cl)cc2c1/C=c1/ccc2c(c1)N=C(c1cc(F)cc(F)c1)N=2	inactive
COc1ccc(-c2nc3ncccn3c2-c2nnc(-c3ccsc3C)o2)cc1	inactive
COc1ccc(OC)c(/C=C/c2nc(SCc3ccccc3)n(-c3ccc(Cl)cc3)n2)c1	inactive
CC[C@H]1CCC/C=C/[C@@H]2C[C@H](O)C[C@H]2[C@H](O)/C=C/C(=O)O1	active

Now for a further molecule.
Problem: Returns: the outcome recorded for COc1cc2c(cc1OCCCN1CCN(c3ncnc4ccccc34)CC1)N=CC1CCCN1C2=O (stereo not given) in this assay.
Solution: active

----------
- System: UACC-257 melanoma
- Assay Explanation: NCI-60 one-dose screen, 48 h (100 = growth as untreated, 0 = no growth, -100 = all killed)
- Setup Conditions: 10 µM
This is part of a sample that, as a whole, favours compounds with a hit. Of some 83,000 tested, about 20% had one in any assay.
Kindly state growth for each of the entries shown.
Answers are plain numbers, in %.

Molecule	Numeric Value
CC(C)C[C@H](NC(=O)[C@H](Cc1cccc2ccccc12)NS(=O)(=O)c1cccc2cccnc12)B(O)O	15.4

For every item below, please supply its growth.
1. CCN1Cc2c(/C=C/c3ccccc3)nc3ccc(OC)cc3c2N(c2cccc(Cl)c2)C1
2. CCn1cc(C(=O)O)c(=O)c2cnc(N3CCCC3)nc21

Solution:
[41.5, 97.2]

For every item below, please supply its growth.
1. COc1cc(-c2cc(/C=C3\C(=O)Nc4cc(Cl)ccc43)[nH]n2)cc(OC)c1OC
2. C=C(C(=O)c1ccccc1)C(NC(C)(C)C)c1ccccc1 (stereo unspecified)
3. ClCC#CCSc1ncnc2c1ncn2CC#CCCl
4. CCCCOc1ccc(NC(=O)Nc2nnc(C)s2)cc1
5. Clc1cc2c(c(CSc3nc4ccccc4n4cccc34)c1)OCOC2

Solution:
1: 78; 2: -15.3; 3: 55; 4: 22.5; 5: 61.3

For every item below, please supply its growth.
1. COc1ccc(N=C2C(=Nc3ccc(OC)cc3)N(c3ccc(N(C)C)cc3)C(=S)N2c2ccc(OC)cc2)cc1
2. COC(=O)C1(C)Cc2cc(OC(C)=O)c(OC(C)=O)cc2N1 (stereo unspecified)
3. Nc1ccc2cc(S(=O)(=O)O)cc(O)c2c1N=Nc1ccc(F)cc1
4. O=c1[nH]c(-c2ccc(Cl)cc2)nc2sc3c(c12)CCCC3
5. COc1cc(/C=C2\Oc3cc(OCC(=O)c4ccccc4)ccc3C2=O)cc(OC)c1OC

Solution:
1. 76.1
2. 19
3. 106
4. 103
5. 132

For every item below, please supply its growth.
1. COC(=O)C(=C\c1ccc2c(c1)OCO2)/C(=C/c1ccc2c(c1)OCO2)C(=O)OC
2. O=C(Nc1ccc(Cl)cc1)N1NC(c2ccc(Cl)cc2)C=C1c1ccccc1 (stereo unspecified)
3. COc1ccc2c(c1)/C(=C\c1c[nH]c3ccc(OC)cc13)C(=O)N2
4. COc1ccc2c(c1)N(CCO)C1=C(C(=O)OC1)C2c1ccccc1 (stereo unspecified)
5. Cn1c([N+](=O)[O-])cnc1/C=C1\Oc2cc(Cl)ccc2C1=O

Solution:
1: 108; 2: 99.7; 3: 68.1; 4: 55; 5: -42

For every item below, please supply its growth.
1. C#Cc1ccc(-n2c(/C=C/c3ccc(O)cc3)nc3ncccc3c2=O)cc1
2. O=C1OCC2=C1C(c1cccc(Cl)c1)c1cc3c(cc1N2CCO)OCO3 (stereo unspecified)
3. CN(C)CCN1C(=O)c2cccc3cc(N)cc(c23)C1=O

Solution:
[36.5, 61, 5.64]

----------
- Test system: COLO 205 colon
- Assay Explanation: NCI-60 one-dose screen, 48 h
- Setup Conditions: 10 µM
This is part of a sample that, as a whole, favours compounds with a hit. Of some 83,000 tested, about 20% had one in any assay. The source made the active and inactive calls. How the source made its calls: active means growth percent below 10; inactive means the rest.
Allowed answers: YES for active, NO for inactive

Examples from the recorded data:
Compound	Label Class
O=C1NC(=O)c2ncccc21	NO
O=C1OCC2=C1C(c1cccc(Cl)c1)c1cc3c(cc1N2CCO)OCO3 (stereo unspecified)	YES
CCN1Cc2c(/C=C/c3ccccc3)nc3ccc(OC)cc3c2N(c2cccc(Cl)c2)C1	NO
COc1ccc([N+](=O)[O-])c(C(=O)O)c1	NO

Problem: Returns: the outcome recorded for COc1ccc2c(c1)[n+]([O-])c(C#N)c(NC(=O)c1ccco1)[n+]2[O-] in this assay.
Solution: NO

Problem: Returns: the outcome recorded for COc1cc(Cl)cc(-c2nn(-c3cccc(NC(=O)Nc4cc(C(F)(F)F)cc(C(F)(F)F)c4)c3)cc2-c2ccncc2)c1 in this assay.
Solution: YES

Problem: Returns: the outcome recorded for O=C(NC(Cc1ccc(O)cc1)C(=O)N=Nc1c(O)[nH]c2ccccc12)c1ccccc1 (stereo unspecified) in this assay.
Solution: NO

Problem: Returns: the outcome recorded for O=C(CCCCC(=O)Nc1ccc2c(c1)/C(=C/c1ccc[nH]1)C(=O)N2)NO in this assay.
Solution: NO

Problem: Returns: the outcome recorded for COc1cc(Cl)cc(-c2nn(-c3cccc(NC(=O)c4ccc(N5CCOCC5)c(C(F)(F)F)c4)c3)cc2-c2ccncc2)c1 in this assay.
Solution: NO

Problem: Returns: the outcome recorded for O=[N+]([O-])c1ccc(Oc2cccnc2)c([N+](=O)[O-])c1 in this assay.
Solution: NO

Problem: Returns: the outcome recorded for C/C(N)=C(\C#N)C(=O)c1ccccc1 in this assay.
Solution: NO

Problem: Returns: the outcome recorded for Cc1cc(Nc2ccc(Cl)cc2)nc(NCCCNc2ccnc3cc(Cl)ccc23)n1 in this assay.
Solution: YES

Problem: Returns: the outcome recorded for Cn1c(C(N)=O)cc2c1-c1nc(Nc3ccccc3)ncc1CCC2 in this assay.
Solution: NO

Problem: Returns: the outcome recorded for O=C(Nc1cccc(-n2cc(-c3ccncc3)c(-c3ccc(O)c(Cl)c3)n2)c1)c1cc(C(F)(F)F)cc(C(F)(F)F)c1 in this assay.
Solution: NO

Problem: Returns: the outcome recorded for Cc1ccc(S(=O)(=O)OCCN(CCOS(=O)(=O)c2ccc(C)cc2)c2c[nH]c(=O)[nH]c2=O)cc1 in this assay.
Solution: NO

Problem: Returns: the outcome recorded for c1ccc2c(-c3nc(N4CCOCC4)c4c5c(sc4n3)CCCCCC5)cccc2c1 in this assay.
Solution: NO

Problem: Returns: the outcome recorded for CCC(=O)N1C/C(=C/c2ccc(OC)cc2)C(=O)/C(=C/c2ccc(OC)cc2)C1 in this assay.
Solution: NO

Problem: Returns: the outcome recorded for COc1ccc(OC)c2c1C(=O)CC2C (stereo unspecified) in this assay.
Solution: NO
